Data origin, for the record: patent US5525735A

Target: rabbit kidney ACE (Oryctolagus cuniculus, UniProt P12822)
Construct: purchased Sigma; host or cells: rabbit kidney
Experiment: Determination of inhibition constants (Ki), fluorometric ACE assay, hydrolysis of Hippuryl-His-Leu
Assay type: biochemical
Settings: after deacetylation; read-out: Ki (individual diastereomers after deacetylation, later eluting isomer)
pKi: −log10 of the molar value.
measurement-kind: pKi

Query: Dear colleague, please send me the reported pKi for COC(=O)[C@H]1C[C@@H](C(=O)O)N(C(=O)[C@H](C)CS)[C@H]1c1ccccc1 [Compound 9] when you can.
Reply: ~9.80

###

Target: rabbit kidney ACE (Oryctolagus cuniculus)
Construct: purchased Sigma; host or cells: rabbit kidney
Sequence (P12822 34-1310): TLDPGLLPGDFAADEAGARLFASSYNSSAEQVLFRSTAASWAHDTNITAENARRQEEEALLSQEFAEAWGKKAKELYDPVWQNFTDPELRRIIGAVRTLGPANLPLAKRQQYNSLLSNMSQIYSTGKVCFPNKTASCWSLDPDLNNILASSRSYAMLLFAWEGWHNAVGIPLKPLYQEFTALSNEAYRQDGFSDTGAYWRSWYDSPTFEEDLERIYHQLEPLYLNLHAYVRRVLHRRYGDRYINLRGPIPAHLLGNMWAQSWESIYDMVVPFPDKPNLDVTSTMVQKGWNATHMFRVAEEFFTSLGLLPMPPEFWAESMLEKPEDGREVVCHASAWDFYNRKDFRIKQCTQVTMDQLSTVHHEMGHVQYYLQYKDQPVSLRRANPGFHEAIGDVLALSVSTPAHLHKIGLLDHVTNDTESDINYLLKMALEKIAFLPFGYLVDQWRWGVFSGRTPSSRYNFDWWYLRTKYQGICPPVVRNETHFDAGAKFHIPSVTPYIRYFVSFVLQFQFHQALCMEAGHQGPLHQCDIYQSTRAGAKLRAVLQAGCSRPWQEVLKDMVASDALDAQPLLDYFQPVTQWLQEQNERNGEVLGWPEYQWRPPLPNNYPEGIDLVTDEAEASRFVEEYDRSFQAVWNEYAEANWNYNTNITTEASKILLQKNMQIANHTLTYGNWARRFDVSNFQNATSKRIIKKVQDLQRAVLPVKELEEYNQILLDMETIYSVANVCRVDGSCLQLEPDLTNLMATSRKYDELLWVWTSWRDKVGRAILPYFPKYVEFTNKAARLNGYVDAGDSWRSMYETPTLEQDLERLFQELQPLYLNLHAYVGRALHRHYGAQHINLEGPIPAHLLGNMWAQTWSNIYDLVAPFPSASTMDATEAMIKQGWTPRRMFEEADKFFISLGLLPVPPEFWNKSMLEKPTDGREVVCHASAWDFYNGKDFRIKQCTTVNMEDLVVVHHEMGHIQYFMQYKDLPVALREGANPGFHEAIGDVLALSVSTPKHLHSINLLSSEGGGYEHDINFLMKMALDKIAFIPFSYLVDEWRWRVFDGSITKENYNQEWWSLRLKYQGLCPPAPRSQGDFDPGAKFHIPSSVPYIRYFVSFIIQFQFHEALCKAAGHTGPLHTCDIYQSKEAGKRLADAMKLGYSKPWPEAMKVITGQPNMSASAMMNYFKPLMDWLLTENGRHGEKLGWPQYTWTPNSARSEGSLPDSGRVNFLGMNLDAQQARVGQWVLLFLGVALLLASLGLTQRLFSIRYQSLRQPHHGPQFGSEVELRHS
Experiment: Determination of inhibition constants (Ki), fluorometric ACE assay, hydrolysis of Hippuryl-His-Leu
Format: biochemical
Conditions: 50 pM enzyme, 20 minute preincubation, assay times 10 or 20 minutes; pH 8.3; read-out: Ki (dissociation constant of the enzyme-inhibitor complex)
measurement-kind: Ki (nM)
Write the value in nM as a bare number.

Query: Quickly give me recorded Ki for COC(=O)[C@H]1C[C@@H](C(=O)O)N(C(=O)[C@H](C)CS)[C@H]1c1ccccc1
Reply: 0.16
